Reported Property: melting point

Compound | melting point
CC(=O)Nc1cccc(S(=O)(=O)Nc2cc(C)c(S(=O)(=O)C[N+](=O)[O-])c(C)c2)c1 | 108 to 110 °C
Cc1cc(NC(=O)C(=O)Nc2cc(C)c(S(=O)(=O)C[N+](=O)[O-])c(C)c2)cc(C)c1S(=O)(=O)C[N+](=O)[O-] | 246 to 248 °C
Cc1cc(NS(=O)(=O)c2cccs2)cc(C)c1S(=O)(=O)C[N+](=O)[O-] | 158 to 159 °C
Cc1cc(NS(=O)(=O)c2cccc(Br)c2)cc(C)c1S(=O)(=O)C[N+](=O)[O-] | 156 to 158 °C
COc1cccc(S(=O)(=O)Nc2cc(C)c(S(=O)(=O)C[N+](=O)[O-])c(C)c2)c1 | 166 to 168 °C

Query string: Recorded melting point for Cc1cc(NS(=O)(=O)c2ccccc2)cc(C)c1[S+]([O-])C[N+](=O)[O-] (stereo not shown) , please?
Result string: > 50 °C (dec.)

Query string: Which melting point reading was recorded for the compound `Cc1cc(NS(=O)(=O)c2c(F)c(F)c(F)c(F)c2F)cc(C)c1S(=O)(=O)C[N+](=O)[O-]` ?
Result string: 128 to 130 °C

Query string: Item `O=C(CCCC(=O)Nc1ccc(S(=O)(=O)C[N+](=O)[O-])cc1)Nc1ccc(S(=O)(=O)C[N+](=O)[O-])cc1` has what recorded melting point?
Result string: 203 to 205 °C

Query string: Quick check: melting point of `Cc1cc(NS(=O)(=O)CC(F)(F)F)cc(C)c1S(=O)(=O)C[N+](=O)[O-]` ?
Result string: 168 to 170 °C

Query string: # query: melting point of entry `Cc1cc(NS(=O)(=O)c2ccc(S(C)(=O)=O)cc2)cc(C)c1S(=O)(=O)C[N+](=O)[O-]`
Result string: 192 to 194 °C

Query string: What does the record list as melting point for `CC(=O)Nc1ccc(S(=O)(=O)Nc2cc(C)c(S(=O)(=O)C[N+](=O)[O-])c(C)c2)cc1Cl` ?
Result string: 209 to 211 °C

Query string: Which melting point is listed for `Cc1cc(NS(=O)(=O)/C=C/c2ccccc2)cc(C)c1S(=O)(=O)C[N+](=O)[O-]` ?
Result string: 174 to 176 °C

Query string: Fill blank: measured melting point of the compound `Cc1cc(NS(=O)(=O)Cc2ccccc2[N+](=O)[O-])cc(C)c1S(=O)(=O)C[N+](=O)[O-]` is ____.
Result string: 189 to 190 °C

Query string: Consider the compound shown here: `Cc1cc(NS(=O)(=O)c2ccc3ccccc3c2)cc(C)c1S(=O)(=O)C[N+](=O)[O-]` What is its recorded melting point?
Result string: 208 to 215 °C

* * *

Reported Property: melting point

Answered examples (7):
Compound | melting point
Cc1cc(NS(=O)(=O)Cc2cccc(CS(=O)(=O)Nc3cc(C)c(S(=O)(=O)C[N+](=O)[O-])c(C)c3)c2)cc(C)c1S(=O)(=O)C[N+](=O)[O-] | 124 to 130 °C
Cc1ccccc1S(=O)(=O)NC(=O)Nc1cc(C)c(S(=O)(=O)C[N+](=O)[O-])c(C)c1 [Example 20] | 194 to 196 °C
Cc1cc(NS(=O)(=O)c2cc(F)cc(F)c2)cc(C)c1S(=O)(=O)C[N+](=O)[O-] [Example 30] | 187 to 190 °C
Cc1cc(NS(=O)(=O)c2ccccc2)cc(C)c1S(=O)(=O)C(Cl)(Cl)[N+](=O)[O-] [Example 33] | 112 to 114 °C
Cc1cc(NS(=O)(=O)c2cccc(S(=O)(=O)Nc3cc(C)c(S(=O)(=O)C[N+](=O)[O-])c(C)c3)c2)cc(C)c1S(=O)(=O)C[N+](=O)[O-] | 191 to 192 °C
Cc1cc(NS(=O)(=O)c2ccc(C(F)(F)F)cc2)cc(C)c1S(=O)(=O)C[N+](=O)[O-] [Example 35] | 187 to 188 °C
Cc1cc(N(C(=O)CCC(N)=O)c2cc(C)c(S(=O)(=O)C[N+](=O)[O-])c(C)c2)cc(C)c1S(=O)(=O)C[N+](=O)[O-] | 226 to 228 °C

Turning now to a further record.
Query string: Quick check: melting point of Cc1cc(NS(=O)(=O)c2cccc3ccccc23)cc(C)c1S(=O)(=O)C[N+](=O)[O-] [Example 31] ?
Result string: 170 to 172 °C

* * *

Where a name gives a salt, the structure may show the parent alone.
// reported melting point for each item listed

// known answers, use as guide
Compound | melting point
Cc1cc(NS(=O)(=O)c2cc(F)c(Br)cc2F)cc(C)c1S(=O)(=O)C[N+](=O)[O-] (as salt: acetate) | 167 to 169 °C
CC(=O)Nc1ccc(S(=O)(=O)Nc2cc(C)c(S(=O)(=O)C[N+](=O)[O-])c(C)c2)cc1 | 209 to 210 °C
Cc1cc(NS(=O)(=O)c2cccc(F)c2F)cc(C)c1S(=O)(=O)C[N+](=O)[O-] | 166 to 168 °C
Cc1cc(NC(=O)Nc2cc(C)c(S(=O)(=O)C[N+](=O)[O-])c(C)c2)cc(C)c1S(=O)(=O)C[N+](=O)[O-] | 224 to 226 °C
Cc1cc(NC(=O)CC(=O)Nc2cc(C)c(S(=O)(=O)C[N+](=O)[O-])c(C)c2)cc(C)c1S(=O)(=O)C[N+](=O)[O-] | 197 to 199 °C

Query string: Please look up its melting point: `Cc1cc(NS(=O)(=O)c2ccccc2Br)cc(C)c1S(=O)(=O)C[N+](=O)[O-]`
Result string: 140 to 142 °C

Query string: Fill in the blank: the reported melting point of `Cc1ccc(S(=O)(=O)NC(=O)Nc2cc(C)c(S(=O)(=O)C[N+](=O)[O-])c(C)c2)cc1` is ____.
Result string: 150 to 155 °C

* * *

Here, each record is paired with measured melting point data.
Where a name gives a salt, the structure may show the parent alone.

Compound | Experimental Value
Cc1cc(NS(=O)(=O)c2ccc(OC(F)(F)F)cc2)cc(C)c1S(=O)(=O)C[N+](=O)[O-] [Example 36] | 180 to 182 °C
Cc1cc(NS(=O)(=O)c2cc(F)ccc2F)cc(C)c1S(=O)(=O)C[N+](=O)[O-] [Example 28] | 132 to 134 °C
Cc1cc(NC(=O)CCCC(=O)Nc2cc(C)c(S(=O)(=O)C[N+](=O)[O-])c(C)c2)cc(C)c1S(=O)(=O)C[N+](=O)[O-] | 207 to 210 °C
Cc1ccccc1S(=O)(=O)Nc1cc(C)c(S(=O)(=O)C[N+](=O)[O-])c(C)c1 [Example 45] | 118 to 120 °C
Cc1cc(NS(C)(=O)=O)cc(C)c1S(=O)(=O)C[N+](=O)[O-] (as salt: acetate) [Example 40] | 138 to 140 °C
Cc1cc(NS(=O)(=O)c2cccnc2)cc(C)c1S(=O)(=O)C[N+](=O)[O-] [Example 47] | 191 to 192 °C
Cc1cc(NC(=O)CCCCCCC(=O)Nc2cc(C)c(S(=O)(=O)C[N+](=O)[O-])c(C)c2)cc(C)c1S(=O)(=O)C[N+](=O)[O-] | 235 to 238 °C
Cc1cc(NS(=O)(=O)c2ccc(F)cc2)cc(C)c1S(=O)(=O)C[N+](=O)[O-] [Example 24] | 152 to 154 °C

Query string: Fill blank: measured melting point of the compound Cc1cc(NS(=O)(=O)c2ccccc2)cc(C)c1SC[N+](=O)[O-] [Example 3] is ____.
Result string: 146 to 148 °C

Query string: Recorded melting point of Cc1cc(NS(=O)(=O)Cc2ccc(Br)cc2F)cc(C)c1S(=O)(=O)C[N+](=O)[O-] [Example 52] , please.
Result string: 152 to 154 °C

Query string: Name the recorded melting point for Cc1cc(NS(=O)(=O)c2ccc(Cl)cc2)cc(C)c1S(=O)(=O)C[N+](=O)[O-] [Example 5] .
Result string: 160 to 162 °C

Query string: Entry under review: Cc1cc(NS(=O)(=O)c2ccccc2)cc(C)c1S(=O)(=O)C[N+](=O)[O-] [Example 1] . Reported melting point?
Result string: 129 to 131 °C

Query string: Requested read-out: melting point. Entry: Cc1cc(NS(=O)(=O)c2ccccc2C(F)(F)F)cc(C)c1S(=O)(=O)C[N+](=O)[O-] [Example 14]
Result string: 171 to 173 °C

* * *

Attribute: melting point

Here are 8 compounds together with their reported answers.
Molecule Smiles | Experimental Value
Cc1cc(NS(=O)(=O)c2ccc(F)cc2F)cc(C)c1S(=O)(=O)C[N+](=O)[O-] | 154 to 156 °C
Cc1cccc(S(=O)(=O)Nc2cc(C)c(S(=O)(=O)C[N+](=O)[O-])c(C)c2)c1 | 179 to 181 °C
Cc1ccc(S(=O)(=O)Nc2cc(C)c(S(=O)(=O)C[N+](=O)[O-])c(C)c2)cc1 | 163 to 165 °C
Cc1cc(NS(=O)(=O)c2ccccc2F)cc(C)c1S(=O)(=O)C[N+](=O)[O-] | 175 to 177 °C
Cc1cc(NS(=O)(=O)Cc2ccccc2C(F)(F)F)cc(C)c1S(=O)(=O)C[N+](=O)[O-] | 146 to 148 °C
Cc1cc(NS(=O)(=O)Cc2ccccc2)cc(C)c1S(=O)(=O)C[N+](=O)[O-] | 124 to 126 °C
Cc1ccccc1CS(=O)(=O)Nc1cc(C)c(S(=O)(=O)C[N+](=O)[O-])c(C)c1 | 167 to 169 °C
Cc1cc(NS(=O)(=O)CC2CCCCC2)cc(C)c1S(=O)(=O)C[N+](=O)[O-] | 126 to 128 °C

Now, please, on to the next compound.
Query string: Looking for the measured melting point of `Cc1cc(NS(=O)(=O)c2cccc(F)c2)cc(C)c1S(=O)(=O)C[N+](=O)[O-]` , can you help?
Result string: 135 to 137 °C
